experiment_summary: Cmax in Sprague-Dawley rat brain at 10 mg/kg, iv
Type: ADME, organism-based
Parameters: dose 10 mg/kg, route intravenous
attribute_measured: Cmax (nM)
Please respond with the number in nM and leave the unit unwritten.

Quick one: Cmax of `Br.CN(C)Cc1cc2c([nH]c(=O)c3cccc(O)c32)s1` ?
678

----------
system_under_test: Poly [ADP-ribose] polymerase 1 (Homo sapiens)
Sequence (P09874 whole entry): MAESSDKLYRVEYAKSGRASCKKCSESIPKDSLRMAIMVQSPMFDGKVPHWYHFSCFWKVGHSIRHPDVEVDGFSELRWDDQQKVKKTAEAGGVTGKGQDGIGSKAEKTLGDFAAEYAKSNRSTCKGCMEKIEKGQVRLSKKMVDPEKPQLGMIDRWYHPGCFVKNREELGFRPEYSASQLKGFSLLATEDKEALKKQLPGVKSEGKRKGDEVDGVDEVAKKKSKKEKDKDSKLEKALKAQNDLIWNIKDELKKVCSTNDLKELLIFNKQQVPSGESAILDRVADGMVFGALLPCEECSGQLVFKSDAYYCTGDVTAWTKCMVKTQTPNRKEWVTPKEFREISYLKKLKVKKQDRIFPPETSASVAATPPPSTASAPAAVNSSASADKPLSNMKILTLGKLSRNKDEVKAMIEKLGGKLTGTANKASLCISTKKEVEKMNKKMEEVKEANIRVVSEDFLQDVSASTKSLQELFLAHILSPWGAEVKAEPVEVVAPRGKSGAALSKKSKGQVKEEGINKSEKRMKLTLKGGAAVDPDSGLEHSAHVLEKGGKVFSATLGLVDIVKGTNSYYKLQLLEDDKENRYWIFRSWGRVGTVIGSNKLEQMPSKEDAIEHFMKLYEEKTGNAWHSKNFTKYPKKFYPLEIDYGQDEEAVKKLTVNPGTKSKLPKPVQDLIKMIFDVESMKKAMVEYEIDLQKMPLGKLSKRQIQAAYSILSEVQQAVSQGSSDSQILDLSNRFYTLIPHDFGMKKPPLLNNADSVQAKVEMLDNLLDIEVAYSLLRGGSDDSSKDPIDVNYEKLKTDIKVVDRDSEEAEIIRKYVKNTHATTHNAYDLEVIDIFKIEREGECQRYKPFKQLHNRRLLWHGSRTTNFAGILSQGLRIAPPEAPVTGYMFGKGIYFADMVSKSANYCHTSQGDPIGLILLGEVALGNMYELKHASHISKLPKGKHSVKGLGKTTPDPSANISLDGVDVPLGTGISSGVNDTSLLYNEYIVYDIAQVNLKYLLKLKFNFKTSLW
experiment_summary: Inhibition of human PARP1 in HEK293 cells assessed as prevention of in MNNG-induced ATP depletion
attribute_measured: EC50 (µM)
State just the number; it will be interpreted in µM.

Suppose we examine the molecule `O=c1[nH]c2ccccc2c2ccccc12` ; what EC50 value has been reported?
0.945

Sample `Br.CN(C)Cc1cc2c([nH]c(=O)c3cccc(O)c32)s1` — what was its EC50?
0.014
